system-tested: Toll-like receptor 4 (Homo sapiens, UniProt O00206)
Sequence (O00206 whole entry): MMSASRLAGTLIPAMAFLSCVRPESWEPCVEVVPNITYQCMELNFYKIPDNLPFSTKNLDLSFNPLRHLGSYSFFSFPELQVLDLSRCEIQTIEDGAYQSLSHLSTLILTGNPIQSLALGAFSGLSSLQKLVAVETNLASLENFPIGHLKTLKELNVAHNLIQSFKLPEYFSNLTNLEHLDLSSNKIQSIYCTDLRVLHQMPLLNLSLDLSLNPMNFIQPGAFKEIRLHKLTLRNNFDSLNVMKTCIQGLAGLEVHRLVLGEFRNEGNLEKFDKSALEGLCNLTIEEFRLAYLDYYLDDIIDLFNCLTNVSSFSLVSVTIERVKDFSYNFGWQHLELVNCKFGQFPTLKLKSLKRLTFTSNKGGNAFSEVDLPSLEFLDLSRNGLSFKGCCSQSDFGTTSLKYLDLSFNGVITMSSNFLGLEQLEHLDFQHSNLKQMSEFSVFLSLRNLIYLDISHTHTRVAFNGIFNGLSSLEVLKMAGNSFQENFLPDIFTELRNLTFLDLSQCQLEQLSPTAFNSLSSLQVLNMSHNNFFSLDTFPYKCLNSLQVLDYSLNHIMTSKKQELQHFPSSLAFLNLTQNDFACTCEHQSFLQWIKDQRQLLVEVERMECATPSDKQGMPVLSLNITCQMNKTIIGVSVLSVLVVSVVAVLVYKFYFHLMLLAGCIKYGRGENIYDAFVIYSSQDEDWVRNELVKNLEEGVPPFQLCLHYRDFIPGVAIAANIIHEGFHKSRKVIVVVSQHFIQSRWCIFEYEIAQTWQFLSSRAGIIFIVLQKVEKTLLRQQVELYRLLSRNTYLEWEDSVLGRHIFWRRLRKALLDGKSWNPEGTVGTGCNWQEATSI
assay-details: Agonist activity at human TLR4 expressed in HEK293 blue cells assessed as induction of NF-kappaB activation-mediated SEAP production by measuring AUC after 20 to 24 hrs by colorimetric assay relative to N-cyclohexyl-2-(5-methyl-4-oxo-3-phenyl-4,5-dihydro-3H-pyrimido[5,4-b]indol-2-ylthio)acetamide
Assay type: cell-based
Give T when the value for Activity is at least 30%. Give F when it is less.

>  <given-smiles>
Cc1c(C)n(C)c2c(=O)n(-c3ccccc3)c(SCC(=O)NC3CCCCC3)nc12

>  <discrete-label>
F

$$$$
>  <given-smiles>
Cn1c2ccccc2c2nc(S(=O)(=O)CC(=O)NC3CCCCC3)n(-c3ccccc3)c(=O)c21

>  <discrete-label>
F

$$$$
>  <given-smiles>
Cn1c2ccccc2c2nc(OCC(=O)NC3CCCCC3)n(-c3ccccc3)c(=O)c21

>  <discrete-label>
F

$$$$
>  <given-smiles>
O=C(CSc1nc2c3c([nH]c2c(=O)n1-c1ccccc1)CCCCC3)NC1CCCCC1

>  <discrete-label>
T

$$$$
>  <given-smiles>
Cn1c2ccc(NC(=O)CCC(=O)O)cc2c2nc(SCC(=O)NC3CCCCC3)n(-c3ccccc3)c(=O)c21

>  <discrete-label>
F

$$$$
>  <given-smiles>
O=C(CCSc1nc2c([nH]c3ccccc32)c(=O)n1-c1ccccc1)NC1CCCCC1

>  <discrete-label>
F

$$$$
>  <given-smiles>
Cn1c2ccc(N)cc2c2nc(SCC(=O)NC3CCCCC3)n(-c3ccccc3)c(=O)c21

>  <discrete-label>
F

$$$$
>  <given-smiles>
Cn1c2ccc(I)cc2c2nc(SCC(=O)NC3CCCCC3)n(-c3ccccc3)c(=O)c21

>  <discrete-label>
T

$$$$
>  <given-smiles>
Cn1c2ccccc2c2nc(NCCC(=O)NC3CCCCC3)n(-c3ccccc3)c(=O)c21

>  <discrete-label>
F

$$$$
>  <given-smiles>
Cn1c2ccc(-c3cccc4ccccc34)cc2c2nc(SCC(=O)NC3CCCCC3)n(-c3ccccc3)c(=O)c21

>  <discrete-label>
T

$$$$
>  <given-smiles>
Cn1c2ccc(-c3ccc(-c4ccccc4)cc3)cc2c2nc(SCC(=O)NC3CCCCC3)n(-c3ccccc3)c(=O)c21

>  <discrete-label>
T

$$$$

* * *

Readings of pEC50 for the listed molecules
system-tested: Toll-like receptor 4 (Mus musculus)
Sequence (Q9QUK6 whole entry): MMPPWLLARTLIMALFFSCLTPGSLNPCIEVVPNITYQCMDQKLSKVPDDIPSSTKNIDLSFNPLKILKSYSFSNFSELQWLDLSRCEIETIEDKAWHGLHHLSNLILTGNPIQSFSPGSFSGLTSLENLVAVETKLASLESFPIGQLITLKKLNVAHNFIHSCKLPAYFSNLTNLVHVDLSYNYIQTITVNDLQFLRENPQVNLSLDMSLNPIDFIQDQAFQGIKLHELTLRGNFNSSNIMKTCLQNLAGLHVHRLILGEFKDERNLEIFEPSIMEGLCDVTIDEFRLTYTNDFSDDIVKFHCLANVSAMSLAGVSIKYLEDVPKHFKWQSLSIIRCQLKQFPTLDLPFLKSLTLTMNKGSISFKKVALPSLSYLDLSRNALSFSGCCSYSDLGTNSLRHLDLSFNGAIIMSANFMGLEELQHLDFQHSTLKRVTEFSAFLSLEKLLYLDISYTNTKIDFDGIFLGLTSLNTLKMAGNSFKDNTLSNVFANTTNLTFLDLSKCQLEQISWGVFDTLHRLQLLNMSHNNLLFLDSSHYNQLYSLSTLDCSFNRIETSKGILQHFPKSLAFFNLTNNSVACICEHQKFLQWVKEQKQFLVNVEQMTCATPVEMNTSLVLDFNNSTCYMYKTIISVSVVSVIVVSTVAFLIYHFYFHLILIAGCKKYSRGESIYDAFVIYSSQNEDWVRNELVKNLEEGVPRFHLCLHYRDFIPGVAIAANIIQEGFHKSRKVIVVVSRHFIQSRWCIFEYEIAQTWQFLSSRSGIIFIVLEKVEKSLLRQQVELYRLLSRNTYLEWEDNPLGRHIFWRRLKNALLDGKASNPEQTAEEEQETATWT
assay-details: Agonist activity at mouse TLR4 expressed in HEK293 blue cells assessed as induction of NF-kappaB activation-mediated SEAP production after 20 to 24 hrs by colorimetric assay
pEC50: −log10 of the molar value.

>  <given-smiles>
Cn1c2cc(C#N)ccc2c2nc(SCC(=O)NC3CCCCC3)n(-c3ccccc3)c(=O)c21

>  <system-tested>
Toll-like receptor 4 (Mus musculus)

>  <pEC50>
< 5.00

$$$$
>  <given-smiles>
Cn1c2ccc(I)cc2c2nc(SCC(=O)NC3CCCCC3)n(-c3ccccc3)c(=O)c21

>  <system-tested>
Toll-like receptor 4 (Mus musculus)

>  <pEC50>
5.60

$$$$
>  <given-smiles>
Cc1[nH]c2c(=O)n(-c3ccccc3)c(SCC(=O)NC3CCCCC3)nc2c1C

>  <system-tested>
Toll-like receptor 4 (Mus musculus)

>  <pEC50>
< 5.00

$$$$
>  <given-smiles>
Cn1c2ccccc2c2nc(NCC(=O)NC3CCCCC3)n(-c3ccccc3)c(=O)c21

>  <system-tested>
Toll-like receptor 4 (Mus musculus)

>  <pEC50>
< 5.00

$$$$
>  <given-smiles>
CCCCCCCC(=O)Nc1ccc2c(c1)c1nc(SCC(=O)NC3CCCCC3)n(-c3ccccc3)c(=O)c1n2C

>  <system-tested>
Toll-like receptor 4 (Mus musculus)

>  <pEC50>
< 5.00

$$$$
>  <given-smiles>
Cn1c2ccc(-c3ccc4ccccc4c3)cc2c2nc(SCC(=O)NC3CCCCC3)n(-c3ccccc3)c(=O)c21

>  <system-tested>
Toll-like receptor 4 (Mus musculus)

>  <pEC50>
5.70

$$$$
>  <given-smiles>
Cn1c2ccccc2c2nc(NCCC(=O)NC3CCCCC3)n(-c3ccccc3)c(=O)c21

>  <system-tested>
Toll-like receptor 4 (Mus musculus)

>  <pEC50>
< 5.00

$$$$
>  <given-smiles>
O=C(CCCSc1nc2c([nH]c3ccccc32)c(=O)n1-c1ccccc1)NC1CCCCC1

>  <system-tested>
Toll-like receptor 4 (Mus musculus)

>  <pEC50>
< 5.00

$$$$
>  <given-smiles>
Cn1c2ccc(NC(=O)CCC(=O)O)cc2c2nc(SCC(=O)NC3CCCCC3)n(-c3ccccc3)c(=O)c21

>  <system-tested>
Toll-like receptor 4 (Mus musculus)

>  <pEC50>
< 5.00

$$$$
>  <given-smiles>
Cn1c2ccccc2c2nc(SCC(=O)NC3CCCCC3)n(-c3ccccc3)c(=O)c21

>  <system-tested>
Toll-like receptor 4 (Mus musculus)

>  <pEC50>
5.50

$$$$
>  <given-smiles>
Cn1c2ccc(NC(=O)c3ccccc3)cc2c2nc(SCC(=O)NC3CCCCC3)n(-c3ccccc3)c(=O)c21

>  <system-tested>
Toll-like receptor 4 (Mus musculus)

>  <pEC50>
< 5.00

$$$$
>  <given-smiles>
C#Cc1ccc2c(c1)c1nc(SCC(=O)NC3CCCCC3)n(-c3ccccc3)c(=O)c1n2C

>  <system-tested>
Toll-like receptor 4 (Mus musculus)

>  <pEC50>
5.56

$$$$
>  <given-smiles>
Cn1c2cc(Br)ccc2c2nc(SCC(=O)NC3CCCCC3)n(-c3ccccc3)c(=O)c21

>  <system-tested>
Toll-like receptor 4 (Mus musculus)

>  <pEC50>
5.31

$$$$
